# TEST_TARGET: CRBN and Helios (IKZF2) (Homo sapiens, UniProt Q96SW2+Q9UKS7)
# Construct: His (N); Strep (N)
# Sequence (Q96SW2 whole entry): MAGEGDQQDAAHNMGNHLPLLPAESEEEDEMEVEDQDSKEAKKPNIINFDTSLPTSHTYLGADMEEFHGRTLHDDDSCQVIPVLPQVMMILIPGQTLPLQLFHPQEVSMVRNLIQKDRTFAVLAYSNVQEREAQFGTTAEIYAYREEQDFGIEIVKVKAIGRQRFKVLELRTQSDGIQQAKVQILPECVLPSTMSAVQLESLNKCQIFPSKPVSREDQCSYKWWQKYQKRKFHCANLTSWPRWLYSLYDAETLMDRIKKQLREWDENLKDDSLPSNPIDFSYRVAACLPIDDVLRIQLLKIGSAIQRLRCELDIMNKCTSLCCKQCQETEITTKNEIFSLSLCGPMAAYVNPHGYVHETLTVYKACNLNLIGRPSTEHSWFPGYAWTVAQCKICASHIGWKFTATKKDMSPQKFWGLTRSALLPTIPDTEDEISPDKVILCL
# Sequence (Q9UKS7 whole entry): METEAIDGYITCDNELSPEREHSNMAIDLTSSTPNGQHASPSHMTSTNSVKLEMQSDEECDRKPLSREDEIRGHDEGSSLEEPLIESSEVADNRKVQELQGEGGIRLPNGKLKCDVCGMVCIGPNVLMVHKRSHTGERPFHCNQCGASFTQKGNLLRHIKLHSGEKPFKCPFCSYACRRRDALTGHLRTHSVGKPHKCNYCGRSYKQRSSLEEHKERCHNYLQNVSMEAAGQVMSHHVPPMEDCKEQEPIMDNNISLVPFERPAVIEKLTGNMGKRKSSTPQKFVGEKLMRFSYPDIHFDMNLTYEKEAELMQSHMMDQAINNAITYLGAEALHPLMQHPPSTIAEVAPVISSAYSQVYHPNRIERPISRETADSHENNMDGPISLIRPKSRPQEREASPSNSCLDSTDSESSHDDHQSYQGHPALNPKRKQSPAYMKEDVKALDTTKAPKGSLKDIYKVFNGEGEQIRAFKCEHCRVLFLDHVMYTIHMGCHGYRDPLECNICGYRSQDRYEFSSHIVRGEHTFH
# ASSAY_REMARKS: TR-FRET dimerization assay (CRBN-IKZF2 ternary complex formation)
# Format: binding
# TEST_CONTEXT: compound concentration 6.6667E−07 (667 nM); n=1
Field: label. Allowed values: T (TR-FRET-IKZF2 (Normalized to CC-885) < 0.06) or F (TR-FRET-IKZF2 (Normalized to CC-885) >= 0.06).

Solved cases below.
O=C1CCC(N2C(=O)C=C(Nc3cccc(Cl)c3)C2=O)C(=O)N1 (stereo not shown) [Compound 26] : F
Cc1ccc(NC(=O)N[C@@H](C)c2cccc(NC3=CC(=O)N(C4CCC(=O)NC4=O)C3=O)c2)cc1Cl (stereo partly shown) [Compound 71] : F
COC(=O)CN(C)C1=CC(=O)N(C2CCC(=O)NC2=O)C1=O (stereo not shown) [Compound 15] : T
Cc1cc(NC2=CC(=O)N(C3CCC(=O)NC3=O)C2=O)ccc1Cl (stereo not shown) [Compound 4] : F
COC(=O)CNC1=CC(=O)N(C2CCC(=O)NC2=O)C1=O (stereo not shown) [Compound 13] : T
Cc1ccc(NC(=O)NCc2cc(NC(=O)N(C)C)cc(NC3=CC(=O)N(C4CCC(=O)NC4=O)C3=O)c2)cc1Cl (stereo not shown) [Compound 112] : T

Hello, I'm reviewing records and need to know if TR-FRET-IKZF2 (Normalized to CC-885) of Cc1ccc(NC(=O)NCc2cccc(NC3=CC(=O)N(C4CCC(=O)NC4=O)C3=O)c2)cc1C (stereo not shown) [Compound 58] is below 0.06. Could you check? F

Hello, I'm reviewing records and need to know if TR-FRET-IKZF2 (Normalized to CC-885) of CCOC(=O)CNC1=CC(=O)N(C2CCC(=O)NC2=O)C1=O (stereo not shown) [Compound 16] is below 0.06. Could you check? T

Hello, I'm reviewing records and need to know if TR-FRET-IKZF2 (Normalized to CC-885) of Cc1ccc(NC(=O)NCCCNC2=CC(=O)N(C3CCC(=O)NC3=O)C2=O)cc1Cl (stereo not shown) [Compound 47] is below 0.06. Could you check? F

Hello, I'm reviewing records and need to know if TR-FRET-IKZF2 (Normalized to CC-885) of O=C1CCC(N2C(=O)C=C(Nc3nccs3)C2=O)C(=O)N1 (stereo not shown) [Compound 19] is below 0.06. Could you check? T

Hello, I'm reviewing records and need to know if TR-FRET-IKZF2 (Normalized to CC-885) of Cc1ccc(NC(=O)N2Cc3ccc(NC4=CC(=O)N(C5CCC(=O)NC5=O)C4=O)cc3C2)cc1Cl (stereo not shown) [Compound 107] is below 0.06. Could you check? F

Hello, I'm reviewing records and need to know if TR-FRET-IKZF2 (Normalized to CC-885) of Cc1ccc(CC(=O)NCc2cccc(NC3=CC(=O)N(C4CCC(=O)NC4=O)C3=O)c2)cc1C (stereo not shown) [Compound 60] is below 0.06. Could you check? F

Hello, I'm reviewing records and need to know if TR-FRET-IKZF2 (Normalized to CC-885) of O=C1CCC(N2C(=O)C=C(Nc3ccc(Cc4ccccc4)cc3)C2=O)C(=O)N1 (stereo not shown) [Compound 39] is below 0.06. Could you check? F

Hello, I'm reviewing records and need to know if TR-FRET-IKZF2 (Normalized to CC-885) of Cc1ccc(NC2=CC(=O)N(C3CCC(=O)NC3=O)C2=O)cc1C#N (stereo not shown) [Compound 5] is below 0.06. Could you check? F

Hello, I'm reviewing records and need to know if TR-FRET-IKZF2 (Normalized to CC-885) of Cc1ccc(NC(=O)NCc2ccc3c(c2)CN(C2CCC(=O)NC2=O)C3=O)cc1Cl (stereo not shown) [CC-885, reference compound] is below 0.06. Could you check? F

Hello, I'm reviewing records and need to know if TR-FRET-IKZF2 (Normalized to CC-885) of Cc1ccc(NCc2cccc(NC3=CC(=O)N(C4CCC(=O)NC4=O)C3=O)c2)cc1Cl (stereo not shown) [Compound 63] is below 0.06. Could you check? F

Hello, I'm reviewing records and need to know if TR-FRET-IKZF2 (Normalized to CC-885) of Cc1ccc(NC(=O)N2CCc3ccc(NC4=CC(=O)N(C5CCC(=O)NC5=O)C4=O)cc3C2)cc1Cl (stereo not shown) [Compound 109] is below 0.06. Could you check? F

Hello, I'm reviewing records and need to know if TR-FRET-IKZF2 (Normalized to CC-885) of CCOC(=O)CN(C)C1=CC(=O)N(C2CCC(=O)NC2=O)C1=O (stereo not shown) [Compound 17] is below 0.06. Could you check? T

Hello, I'm reviewing records and need to know if TR-FRET-IKZF2 (Normalized to CC-885) of Cc1ccc(NC(=O)Cc2cccc(NC3=CC(=O)N(C4CCC(=O)NC4=O)C3=O)c2)cc1Cl (stereo not shown) [Compound 50] is below 0.06. Could you check? F

Hello, I'm reviewing records and need to know if TR-FRET-IKZF2 (Normalized to CC-885) of O=C1CCC(N2C(=O)C=C(Nc3nc[nH]n3)C2=O)C(=O)N1 (stereo not shown) [Compound 18] is below 0.06. Could you check? T

Hello, I'm reviewing records and need to know if TR-FRET-IKZF2 (Normalized to CC-885) of CCC(NC(=O)Nc1ccc(C)c(Cl)c1)c1cccc(NC2=CC(=O)N(C3CCC(=O)NC3=O)C2=O)c1 (stereo not shown) [Compound 74] is below 0.06. Could you check? F

Hello, I'm reviewing records and need to know if TR-FRET-IKZF2 (Normalized to CC-885) of Cc1ccc(NC(=O)/C=C/c2cccc(NC3=CC(=O)N(C4CCC(=O)NC4=O)C3=O)c2)cc1Cl (stereo not shown) [Compound 57] is below 0.06. Could you check? F

Numbers sourced from patent US12227488B2.
